Literature compilation of Ki measurements on UniProt P30518.
Reply numerically in nM, unit not repeated.

Answered examples (3):
{"columns": ["COMPOUND_STRUCTURE", "MEASURED_ON", "Ki, nM"],
 "data": [
  ["O=C1Cc2cc(Cl)ccc2-n2c(nnc2[C@H]2CC[C@H](Oc3ccccn3)CC2)C1", "UniProt P30518", 662],
  ["C[C@@H]1CN(C(=O)c2ccc(-n3cccn3)cc2Cl)c2ccccc2CN1C(=O)NCCO", "UniProt P30518", 61.9],
  ["CCCOc1ccc(C(=O)N2CCC(F)(F)/C(=C\\C(=O)NCC(N)=O)c3cc(Cl)ccc32)c(C(F)(F)F)c1", "UniProt P30518", 4.3]
]}

Read the next record carefully.
Form field - read-out: Ki; system: UniProt P30518; submitted item: O=C(O)CN1Cc2ccccc2N(C(=O)c2ccc(OCC(F)(F)F)cc2Cl)CC1=O
197

###

Literature compilation of Ki measurements on UniProt P30518.
Reply numerically in nM, unit not repeated.

{"columns": ["COMPOUND_STRUCTURE", "UNIT_SYMBOL", "EXPERIMENTAL_RESULT"],
 "data": [
  ["O=C(O)CN1Cc2ccccc2N(C(=O)c2ccc(-c3ccccc3)cc2)CC1=O", "nM", 103]
]}

Ki lookup needed for Cc1cnc(CN2Cc3ccccc3N(C(=O)c3ccc(OCCO)cc3Cl)CC2=O)o1 , thanks.
322

Note, next up: Cc1ccn(-c2ccc(C(=O)N3CCC(F)(F)/C(=C\C(=O)Nc4cccc(CO)c4)c4ccccc43)c(Cl)c2)n1
2.2

Note, next up: CCCN(C)c1ccc(C(=O)N2CCC(F)(F)/C(=C\C(=O)NCC(N)=O)c3ccccc32)c(C(F)(F)F)c1
18
